This collection of values is drawn from ChEMBL document CHEMBL3988442.

Tested on: Wolbachia pipientis
Test: Anti-Wolbachia Cell-Based Screen
Type: functional
Set-up: scale not given: in the data most compounds retested in dose-response had high values
Conditions: 5 µM
The campaign covered roughly 48,000 compounds. About 13,000 (27%) showed an effect of 50% or more. Some of the results follow.

# Compound, Percent Effect [%]
data = [
    ("OCc1ccc(N2CCN(c3ncccn3)CC2)c(F)c1", 10.85),
    ("CN(C)C(=O)CO[C@@H]1CC[C@H]2[C@H]1OCCN2c1ncccn1.O=C(O)C(F)(F)F", -13.26),
    ("O=C(O)C(F)(F)F.c1cnc(N2CCO[C@H]3[C@H](OCC4CCOCC4)CC[C@@H]32)nc1", 109.2),
    ("CN(C)S(=O)(=O)N1C[C@H]2CCC[C@@]2(COCC2CCOCC2)C1", -9.423),
    ("c1cnc(N2CCO[C@H]3[C@H](OCCN4CCOCC4)CC[C@@H]32)nc1", 4.128),
    ("CN1CCOC(CNC(=O)CCc2cc(F)ccc2F)C1 (configuration not stated)", 5.661),
    ("Nc1nc(CCNc2ncnc3c2CCN(C(=O)C2CC2)C3)cs1", -7.691),
    ("O=C1NCCCCC1SCc1coc(-c2ccc(F)cc2)n1 (configuration not stated)", -0.7587),
    ("O=C1CCSCC(C(=O)N2CCN(C3CCCCC3)CC2)N1 (configuration not stated)", 2.707),
    ("O=C1NCCCCC1Sc1nnc(-c2cccnc2)n1C1CC1 (configuration not stated)", -7.436),
    ("CC(=O)NC[C@H]1OC[C@@H](NC2CCC(F)(F)CC2)[C@@H]1O", -10),
    ("COc1ccccc1N1CCN(C(=O)CCn2nnnc2C)CC1(C)C", 3.802),
    ("Cn1cnnc1C1CCCN(C(=O)c2cc3ccccc3[nH]2)C1 (configuration not stated)", 124.8),
    ("Cc1csc(C(C#N)C(=O)NCc2ccccc2)n1 (configuration not stated)", 0.1394),
    ("N#Cc1ccc(F)c(CNC(=O)NCCC(=O)NC2CCCC2)c1", 6.795),
    ("O=S(=O)(CCc1ccccc1)Nc1cc(Cl)ccn1", -16.02),
    ("COc1ccccc1-n1cc(CN2CCN(C)[C@@H]3CS(=O)(=O)C[C@@H]32)cn1", -2.085),
]
